Below are pKi values recorded for human α1a receptor (Homo sapiens, UniProt P35348).
Numbers only, as −log10 of the molar value.

Reference set (5 entries):
compound	endpointValue
COC(=O)c1[nH]c(=O)n(CCCCCN2CCN(c3ccccc3C(N)=O)CC2)c1-c1cc(F)c(F)c(F)c1 [Compound 4]	8.82
COC(=O)c1[nH]c(=O)n(CCCCCN2CCC(O)(c3ccccc3)CC2)c1-c1ccc(F)c(F)c1 [Compound 3]	7.68
COC(=O)c1[nH]c(=O)n(CCCCCN2CCC(C(=O)OC)(c3ccccc3)CC2)c1-c1ccc(F)c(F)c1 [Compound 1]	8.74
CCOC(=O)c1[nH]c(=O)n(CCCCCN2CCN(c3ccccc3C(N)=O)CC2)c1-c1ccc(F)c(F)c1 [Compound 6]	8.85
COC(=O)c1[nH]c(=O)n(CCCCCN2CCC(C(=O)OC)(c3ccccc3)CC2)c1Cc1ccc(F)c(F)c1 [Compound 37]	8.35

Give pKi only, for COC(=O)c1[nH]c(=O)n(CCCCCN2CCC(C#N)(c3ccccc3)CC2)c1-c1ccc(F)c(F)c1 [Compound 2] , using human α1a receptor (Homo sapiens, UniProt P35348) data.
8.39
